Target: dopamine uptake by striatal synaptosomes (Mus musculus)
Construct: C57B6 mice (aged 6–8 weeks) were decapitated and striatum were dissected from both sides of the brain; from tissue; host or cells: striatal synaptosomes of C57B6 mice
Test: Dopamine reuptake into striatal synaptosomes
Assay type: biochemical
Settings: mouse striatum synaptosomes, 60 nM [3H]dopamine, 100 µM desipramine; mean ± SEM, 3 experiments; read-out: IC50, inhibition of dopamine uptake by striatal synaptosomes
Description: All animal work was conducted in adherence to OSU IACUC approved protocols and guidelines for animal welfare. C57B6 mice (aged 6–8 weeks) were decapitated and striatum were dissected from both sides of the brain and stored on ice. […] Amounts of [^3H]-labeled dopamine accumulated were quantitated by liquid-scintillation counting. […] The IC50 values were determined by nonlinear regression analyses of experimental data using GraphPad Prism 3.0 (San Diego, CA). […]
Endpoint: pIC50
pIC50 here is simply -log10 of the concentration when that concentration is written in mol/L.

Asked: Entry COC(=O)[C@H]1[C@@H](OC(=O)c2ccccc2)C[C@@H]2CC[C@H]1[N+]2(C)C.[I-] [Cocaine Methiodide, Cocaine methiodide] : reported pIC50 = ?
Given back: 4.94

* * *

molecular target: mouse SERT (Mus musculus, UniProt Q60857); experiment: Serotonin uptake into HeLa cells transiently transfected with mSERT; type: cell-based
Sequence (Q60857 whole entry): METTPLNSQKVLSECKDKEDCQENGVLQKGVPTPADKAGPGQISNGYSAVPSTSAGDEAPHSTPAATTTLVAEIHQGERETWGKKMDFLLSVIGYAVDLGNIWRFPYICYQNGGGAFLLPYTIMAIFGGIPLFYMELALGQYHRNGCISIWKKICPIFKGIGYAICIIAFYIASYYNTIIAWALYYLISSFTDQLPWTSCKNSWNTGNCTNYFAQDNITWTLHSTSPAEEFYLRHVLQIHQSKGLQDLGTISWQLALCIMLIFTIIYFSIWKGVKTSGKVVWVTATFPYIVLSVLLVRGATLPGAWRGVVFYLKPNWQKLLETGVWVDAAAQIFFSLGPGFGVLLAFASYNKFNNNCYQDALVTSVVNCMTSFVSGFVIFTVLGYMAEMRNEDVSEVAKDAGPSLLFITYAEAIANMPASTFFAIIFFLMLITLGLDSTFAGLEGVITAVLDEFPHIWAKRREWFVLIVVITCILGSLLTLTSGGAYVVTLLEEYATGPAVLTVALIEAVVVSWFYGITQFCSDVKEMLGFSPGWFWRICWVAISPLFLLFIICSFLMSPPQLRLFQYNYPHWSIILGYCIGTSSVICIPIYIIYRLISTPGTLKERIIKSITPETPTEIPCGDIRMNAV
Endpoint: pIC50
Scale: negative log10 of molar concentration, which is what pIC50 denotes.

Asked: Entry COC(=O)[C@H]1[C@@H](OC(=O)c2ccccc2)C[C@@H]2CC[C@H]1N2C [Cocaine] has what pIC50?
Given back: 6.17

* * *

molecular target: dopamine uptake by striatal synaptosomes (Mus musculus, UniProt Q61327); construct: C57B6 mice (aged 6–8 weeks) were decapitated and striatum were dissected from both sides of the brain; from tissue; host or cells: striatal synaptosomes of C57B6 mice; test: Dopamine reuptake into striatal synaptosomes; assay type: biochemical
Sequence (Q61327 whole entry): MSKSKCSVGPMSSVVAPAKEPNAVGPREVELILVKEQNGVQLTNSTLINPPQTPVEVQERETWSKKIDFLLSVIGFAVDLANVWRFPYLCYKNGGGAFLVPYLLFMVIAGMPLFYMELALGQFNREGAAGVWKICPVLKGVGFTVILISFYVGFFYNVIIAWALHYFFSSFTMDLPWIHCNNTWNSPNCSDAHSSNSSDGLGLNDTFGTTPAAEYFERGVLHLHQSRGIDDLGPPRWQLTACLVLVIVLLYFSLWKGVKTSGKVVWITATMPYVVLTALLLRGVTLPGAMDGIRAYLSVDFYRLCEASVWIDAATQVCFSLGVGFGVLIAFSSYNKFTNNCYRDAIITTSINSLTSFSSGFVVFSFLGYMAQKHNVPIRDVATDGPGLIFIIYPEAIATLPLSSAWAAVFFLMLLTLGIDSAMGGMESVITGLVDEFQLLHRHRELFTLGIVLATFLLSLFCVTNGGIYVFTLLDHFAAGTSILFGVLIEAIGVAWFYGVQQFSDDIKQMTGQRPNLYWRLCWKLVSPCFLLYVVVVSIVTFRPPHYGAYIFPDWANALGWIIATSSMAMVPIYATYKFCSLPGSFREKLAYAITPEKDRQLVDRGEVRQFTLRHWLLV
Endpoint: pIC50
FYI, pIC50 means -log10 of a concentration in mol per litre.

Asked: pIC50 for COC(=O)[C@H]1[C@@H](OC(=O)c2ccccc2)C[C@@H]2CC[C@H]1N2C ?
Given back: 6.46

* * *

molecular target: mouse NET (Mus musculus, UniProt O55192); assay: Norepinephrine uptake into HeLa cells transiently transfected with mNET; type: cell-based
Sequence (O55192 whole entry): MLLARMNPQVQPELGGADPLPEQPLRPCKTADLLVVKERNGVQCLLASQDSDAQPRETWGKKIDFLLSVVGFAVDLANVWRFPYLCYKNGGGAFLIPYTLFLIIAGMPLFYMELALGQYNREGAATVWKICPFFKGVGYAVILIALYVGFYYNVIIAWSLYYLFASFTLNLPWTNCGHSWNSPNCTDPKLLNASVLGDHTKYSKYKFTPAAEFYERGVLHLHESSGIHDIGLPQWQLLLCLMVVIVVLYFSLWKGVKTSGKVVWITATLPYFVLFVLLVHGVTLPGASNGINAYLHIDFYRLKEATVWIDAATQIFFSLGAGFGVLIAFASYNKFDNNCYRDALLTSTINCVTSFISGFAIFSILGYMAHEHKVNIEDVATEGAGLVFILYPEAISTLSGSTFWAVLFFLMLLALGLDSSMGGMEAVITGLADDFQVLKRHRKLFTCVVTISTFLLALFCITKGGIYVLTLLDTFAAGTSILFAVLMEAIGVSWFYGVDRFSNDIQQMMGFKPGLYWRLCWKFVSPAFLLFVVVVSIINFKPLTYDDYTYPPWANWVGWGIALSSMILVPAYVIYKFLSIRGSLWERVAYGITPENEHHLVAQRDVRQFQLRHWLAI
Endpoint: IC50 (nM)
# unit: nM | format: bare number

Asked: Please provide the recorded IC50 for COC(=O)[C@H]1[C@@H](OC(=O)c2ccccc2)C[C@@H]2CC[C@H]1N2C , tested on mouse NET (Mus musculus, UniProt O55192).
Given back: 670
